Could you please report measured Ki for the items listed next?
tgt: glucocorticoid receptors (Homo sapiens)
Sequence (P04150 whole entry): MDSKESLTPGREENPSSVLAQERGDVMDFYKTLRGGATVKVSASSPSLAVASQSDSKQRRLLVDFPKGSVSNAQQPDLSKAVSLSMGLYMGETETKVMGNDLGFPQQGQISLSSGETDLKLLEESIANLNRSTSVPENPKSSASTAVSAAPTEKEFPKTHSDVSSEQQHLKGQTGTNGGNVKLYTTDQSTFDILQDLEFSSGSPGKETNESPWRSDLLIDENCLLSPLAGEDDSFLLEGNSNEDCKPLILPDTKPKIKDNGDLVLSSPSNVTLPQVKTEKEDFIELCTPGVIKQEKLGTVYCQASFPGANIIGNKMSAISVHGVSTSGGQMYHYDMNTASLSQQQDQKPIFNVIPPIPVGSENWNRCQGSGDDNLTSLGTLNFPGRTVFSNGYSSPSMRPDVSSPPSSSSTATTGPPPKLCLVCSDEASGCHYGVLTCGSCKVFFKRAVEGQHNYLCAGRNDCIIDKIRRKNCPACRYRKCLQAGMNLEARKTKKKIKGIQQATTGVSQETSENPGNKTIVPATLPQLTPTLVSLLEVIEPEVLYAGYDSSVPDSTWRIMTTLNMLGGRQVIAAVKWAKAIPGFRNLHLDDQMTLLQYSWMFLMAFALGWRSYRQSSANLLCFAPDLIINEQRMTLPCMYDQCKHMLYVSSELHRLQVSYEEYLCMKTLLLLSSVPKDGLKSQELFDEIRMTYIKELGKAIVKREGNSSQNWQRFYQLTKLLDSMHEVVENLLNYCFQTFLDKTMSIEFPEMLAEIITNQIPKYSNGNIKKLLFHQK
method: Glucocorticoid receptor binding displacement assay with 3H-dexamethasone
Parameters: This GR was a full-length steroid hormone receptor; host or cells: recombinant baculovirus-infected insect cells
condition_parameters: Ki from IC50 by Cheng-Prusoff; 2.5 nM 3H-dexamethasone; read-out: GR Binding

Tell us which Ki value is on record for CC(C)(C)c1ccc(S(=O)(=O)N2CCC3=Cc4[nH]ncc4CC3(Cc3ccccc3)C2)cc1 (centres unmarked) [drawing 229]
< 10 nM

Tell us which Ki value is on record for CC(O)[C@]12Cc3cnn(-c4ccc(F)cc4)c3C=C1CCN(S(=O)(=O)c1ccc(C(C)(C)C)cc1)C2 (some centres unmarked)
< 10 nM

Tell us which Ki value is on record for CC(C)(C)c1ccc(S(=O)(=O)N2CCC3=Cc4c(cnn4-c4ccc(F)cc4)CC3(Cc3ccccc3)C2)cc1 (centres unmarked) [drawing 249]
< 10 nM

Tell us which Ki value is on record for N#Cc1ccc(S(=O)(=O)N2CCC3=Cc4c(cnn4-c4ccc(F)cc4)C[C@]3(CN3CCOCC3)C2)cc1
< 10 nM

Tell us which Ki value is on record for CC(C)(C)c1ccc(S(=O)(=O)N2CCC3=Cc4c(cnn4-c4ccc(F)cc4)C[C@]3(CO)C2)cc1
< 10 nM

Tell us which Ki value is on record for COC[C@]12Cc3cnn(-c4ccc(F)cc4)c3C[C@@H]1CCN(S(=O)(=O)c1ccc(C(C)(C)C)cc1)C2
< 10 nM

Tell us which Ki value is on record for CC(C)(C)c1ccc(S(=O)(=O)N2CCC3=Cc4c(cnn4-c4ccc(C#N)cc4)CC3(Cc3ccccc3)C2)cc1 (centres unmarked) [drawing 239]
< 10 nM

Tell us which Ki value is on record for CN1CCOc2cc(S(=O)(=O)N3CCC4=Cc5[nH]ncc5CC4(Cc4ccccc4)C3)ccc21 (centres unmarked) [drawing 231]
< 10 nM

Tell us which Ki value is on record for CC(C)(C)c1ccc(S(=O)(=O)N2CCC3=Cc4c(cnn4-c4ccc(F)cc4)C[C@]3(C(=O)c3ccccc3)C2)cc1
< 10 nM

Tell us which Ki value is on record for COC[C@]12Cc3cnn(-c4ccc(F)cc4)c3C[C@@H]1CCN(S(=O)(=O)c1ccccc1)C2
10 to 100 nM

Tell us which Ki value is on record for O=S(=O)(N1CCCCC1)N1CCC2=Cc3c(cnn3-c3ccc(F)cc3)CC2(Cc2ccc(F)cc2)C1 (centres unmarked)
10 to 100 nM

Tell us which Ki value is on record for CC(C)(C)c1ccc(S(=O)(=O)N2CCC3=Cc4c(cnn4-c4ccc(S(N)(=O)=O)cc4)CC3(Cc3ccccc3)C2)cc1 (centres unmarked) [drawing 240]
10 to 100 nM

Tell us which Ki value is on record for CC(C)(C)c1ccc(S(=O)(=O)N2CCC3=Cc4c(cnn4-c4ccc(C(F)(F)F)cc4)CC3(Cc3ccccc3)C2)cc1 (centres unmarked) [drawing 238]
10 to 100 nM

Tell us which Ki value is on record for COC[C@]12Cc3cnn(-c4ccc(F)cc4)c3C=C1CCN(S(=O)(=O)c1ccccc1)C2
< 10 nM

Tell us which Ki value is on record for Cc1ccc(S(=O)(=O)N2CCC3=Cc4c(cnn4-c4ccc(F)cc4)CC3(Cc3ccc(F)cc3)C2)cc1 (centres unmarked)
< 10 nM

Tell us which Ki value is on record for COC[C@]12Cc3cnn(-c4ccc(F)cc4)c3C=C1CCN(S(=O)(=O)c1ccc(C(C)(C)C)cc1)C2
< 10 nM

Tell us which Ki value is on record for C[C@]12Cc3cnn(-c4ccc(F)cc4)c3C=C1CCN(S(=O)(=O)N1CCCCC1)C2
10 to 100 nM

Tell us which Ki value is on record for CS(=O)(=O)N1CCC2=Cc3c(cnn3-c3ccc(F)cc3)CC2(Cc2ccc(F)cc2)C1 (centres unmarked)
10 to 100 nM

Tell us which Ki value is on record for Cc1ccccc1S(=O)(=O)N1CCC2=Cc3c(cnn3-c3ccc(F)cc3)C[C@]2(CN2CCOCC2)C1
< 10 nM

Tell us which Ki value is on record for COc1ccc(-n2ncc3c2C=C2CCN(S(=O)(=O)c4ccc(C(C)(C)C)cc4)C[C@@]2(Cc2ccccc2)C3)cc1
< 10 nM

Tell us which Ki value is on record for CCCCn1ncc2c1C=C1CCN(S(=O)(=O)c3ccc(C)cc3)C[C@@]1(COC)C2
10 to 100 nM

Tell us which Ki value is on record for O=S(=O)(c1ccccc1)N1CCC2=Cc3c(cnn3-c3ccc(F)cc3)CC2(Cc2ccc(F)cc2)C1 (centres unmarked)
< 10 nM

Tell us which Ki value is on record for CC(C)(C)c1ccc(S(=O)(=O)N2CC[C@H]3Cc4c(cnn4-c4ccc(F)cc4)C[C@]3(CO)C2)cc1
> 100 nM

Tell us which Ki value is on record for O=S(=O)(c1ccccn1)N1CCC2=Cc3c(cnn3-c3ccc(F)cc3)C[C@]2(CN2CCOCC2)C1
< 10 nM

Tell us which Ki value is on record for CCCCS(=O)(=O)N1CCC2=Cc3c(cnn3-c3ccc(F)cc3)C[C@]2(CN2CCOCC2)C1
10 to 100 nM

Tell us which Ki value is on record for CC(C)(C)c1ccc(S(=O)(=O)N2CCC3=Cc4c(cnn4-c4ccc(C(F)(F)F)cc4)CC3(Cc3ccccc3)C2)cc1 (centres unmarked) [drawing 254]
10 to 100 nM

Tell us which Ki value is on record for Fc1ccc(-n2ncc3c2C=C2CCN(Cc4ccccc4)CC2(Cc2ccccc2)C3)cc1 (centres unmarked) [drawing 258]
10 to 100 nM

Tell us which Ki value is on record for O=S(=O)(c1ccccc1)N1CCC2=Cc3c(cnn3-c3ccc(F)cc3)C[C@]2(CN2CCCC2)C1
< 10 nM

Tell us which Ki value is on record for COC[C@]12Cc3cnn(-c4ccc(F)cc4)c3C=C1CCN(S(=O)(=O)N(C)C)C2
10 to 100 nM

Tell us which Ki value is on record for O=S(=O)(c1ccc(N2CCOCC2)nc1)N1CCC2=Cc3c(cnn3-c3ccc(F)cc3)CC2(Cc2ccc(F)cc2)C1 (centres unmarked)
< 10 nM

Tell us which Ki value is on record for CC(C)(C)c1ccc(S(=O)(=O)N2CCC3=Cc4c(cnn4-c4ccccn4)C[C@]3(C)C2)cc1
10 to 100 nM

Tell us which Ki value is on record for Cc1ccc(S(=O)(=O)N2CCC3=Cc4c(cnn4-c4ccc(F)cc4)C[C@]3(CN3CCCC3)C2)cc1
< 10 nM
